- Test system: superoxide radicals (O2^-) released from peritoneal macrophage cells of guinea pig
- measurementDescription: Inhibitory effect against superoxide radicals released from peritoneal macrophage cells of guinea pig by stimulation (FMLP), cytochrome C reduction
- Format: cell-based
- conditionParameters: Cavia porcellus, Peritoneal macrophage cell; guinea pig peritoneal macrophages 2×10^6 cells/ml; FMLP 10^-7 M; 37° C.; OD550; read-out: IC50 (superoxide radical release)
Examples of molecules with documented IC50 follow.
assayMetric: IC50 (µg/mL)

{"smilesData": "COc1c(C(=O)Nc2cc(C(C)(C)C)c(O)c(C(C)(C)C)c2)[nH]c(=O)c(CC(C)C)[n+]1[O-]", "experimentalResult": 17}
{"smilesData": "COc1cccc(NC(=O)c2[nH]c(=O)c(CC(C)C)[n+]([O-])c2OC)c1", "experimentalResult": 40}
{"smilesData": "COc1c(C(=O)Nc2nc3ccccc3s2)[nH]c(=O)c(CC(C)C)[n+]1[O-]", "experimentalResult": 18}
{"smilesData": "COc1c(C(=O)Nc2cccc(SC)c2)[nH]c(=O)c(CC(C)C)[n+]1[O-]", "experimentalResult": 20}
{"smilesData": "COc1ccc2nc(NC(=O)c3[nH]c(=O)c(CC(C)C)[n+]([O-])c3OC)sc2c1", "experimentalResult": 10}
{"smilesData": "COc1c(C(=O)Nc2ccccc2-c2ccccc2)[nH]c(=O)c(CC(C)C)[n+]1[O-]", "experimentalResult": 3}
{"smilesData": "COc1cccc(CNC(=O)c2[nH]c(=O)c(CC(C)C)[n+]([O-])c2OC)c1", "experimentalResult": 30}
{"smilesData": "COc1c(C(=O)Nc2ccc3c(c2)OCO3)[nH]c(=O)c(CC(C)C)[n+]1[O-]", "experimentalResult": 56}

Where do these numbers come from? They come from patent US5459142A.
